method.description: Plasma pharmacokinetics of MB076 after single IV dose in thigh-infected mice
Format: in vivo, mouse
condition.parameters: mouse; 12.5 mg/kg single IV, plasma, thigh-infected mice; read-out: AUClast
property.label: AUC(0-t) (ng·h/mL)
Value expressed in ng·h/mL; do not type the unit.

// query AUC(0-t) for "Nc1nnc(SCC(=O)N[C@@H](Cn2cc(C(=O)O)nn2)B(O)O)s1" ?
// result 7100

###

method.description: Plasma pharmacokinetics of MB076 after single IV dose in thigh-infected mice
Type: in vivo, mouse
condition.parameters: mouse, plasma, iv, 100 mg/kg, 100 mg/kg single IV, thigh-infected mice
property.label: half-life
Dear colleague, please send the value followed by its unit.

// query I'd like to know its half-life. The molecule in question is "Nc1nnc(SCC(=O)N[C@@H](Cn2cc(C(=O)O)nn2)B(O)O)s1"
// result 25.8 min
